Numbers sourced from ChEMBL document CHEMBL1129136.

assay remarks: Half life was measured at pH 7.4 and at 37 degree Celsius temperature
Format: ADME
Where half-life equals or exceeds 20 h, the correct label is 1.0; where it does not, the label is 0.0.

molecule	classification
CCC(=O)OCC(CCn1cnc2c(O)nc(N)nc21)COC(=O)[C@@H](N)C(C)CC.Cl (stereo not given in full)	1.0
CC(C)C(=O)OCC(CCn1cnc2c(O)nc(N)nc21)COC(=O)[C@@H](N)C(C)C.Cl (stereo not given in full)	0.0
CCCC(=O)OCC(CCn1cnc2c(O)nc(N)nc21)COC(=O)[C@@H](N)C(C)CC.Cl (stereo not given in full)	1.0
CC(C)[C@H](N)C(=O)OCC(CCn1cnc2c(O)nc(N)nc21)COC(=O)[C@@H](N)C(C)C.Cl.Cl	0.0
CC(=O)OCC(CCn1cnc2c(O)nc(N)nc21)COC(=O)[C@@H](N)C(C)C.Cl (stereo not given in full)	0.0
CCC(C)[C@H](N)C(=O)OCC(CCn1cnc2c(O)nc(N)nc21)COC(C)=O.Cl (stereo not given in full)	1.0
CCC(C)[C@H](N)C(=O)OCC(CCn1cnc2c(O)nc(N)nc21)COC(=O)C(C)C.Cl (stereo not given in full)	1.0
CCCC(=O)OCC(CCn1cnc2c(O)nc(N)nc21)COC(=O)[C@@H](N)C(C)C.Cl (stereo not given in full)	0.0
CCC(=O)OCC(CCn1cnc2c(O)nc(N)nc21)COC(=O)[C@@H](N)C(C)C.Cl (stereo not given in full)	0.0
CCC(C)[C@H](N)C(=O)OCC(CCn1cnc2c(O)nc(N)nc21)COC(=O)[C@@H](N)C(C)CC.Cl.Cl (stereo not given in full)	0.0

###

Tested on: Vero
assay remarks: Compound was tested for its antiviral activity against HSV-1(KOS strain) in vero cells
Assay type: functional, cell-based
assay context: Chlorocebus sabaeus

molecule	target entity	EC50
CC(C)[C@H](N)C(=O)OCC(CCn1cnc2c(O)nc(N)nc21)COC(=O)[C@@H](N)C(C)C.Cl.Cl	Vero	25.5 µM
CCC(=O)OCC(CCn1cnc2c(O)nc(N)nc21)COC(=O)[C@@H](N)C(C)CC.Cl (some centres not stated)	Vero	> 100 µM
CCC(C)[C@H](N)C(=O)OCC(CCn1cnc2c(O)nc(N)nc21)COC(=O)[C@@H](N)C(C)CC.Cl.Cl (some centres not stated)	Vero	42.3 µM
CCCC(=O)OCC(CCn1cnc2c(O)nc(N)nc21)COC(=O)[C@@H](N)C(C)C.Cl (some centres not stated)	Vero	42 µM
CCC(C)[C@H](N)C(=O)OCC(CCn1cnc2c(O)nc(N)nc21)COC(=O)C(C)C.Cl (some centres not stated)	Vero	> 100 µM
CC(=O)OCC(CCn1cnc2cnc(N)nc21)COC(C)=O	Vero	> 100 µM
CCC(=O)OCC(CCn1cnc2c(O)nc(N)nc21)COC(=O)[C@@H](N)C(C)C.Cl (some centres not stated)	Vero	> 100 µM
Nc1nc(O)c2ncn(CCC(CO)CO)c2n1	Vero	8.1 µM
CCC(C)[C@H](N)C(=O)OCC(CCn1cnc2c(O)nc(N)nc21)COC(C)=O.Cl (some centres not stated)	Vero	> 100 µM
CCCC(=O)OCC(CCn1cnc2c(O)nc(N)nc21)COC(=O)[C@@H](N)C(C)CC.Cl (some centres not stated)	Vero	24.2 µM
CC(=O)OCC(CCn1cnc2c(O)nc(N)nc21)COC(=O)[C@@H](N)C(C)C.Cl (some centres not stated)	Vero	> 100 µM
CC(C)C(=O)OCC(CCn1cnc2c(O)nc(N)nc21)COC(=O)[C@@H](N)C(C)C.Cl (some centres not stated)	Vero	> 100 µM

###

half-life for assorted molecules
assay remarks: Half life was measured […] at 37 degree Celsius temperature by HPLC assay using a c18 reversed-phase column.
Type: ADME

molecule	half-life [h]
CCC(C)[C@H](N)C(=O)OCC(CCn1cnc2c(O)nc(N)nc21)COC(=O)[C@@H](N)C(C)CC.Cl.Cl (stereo not given in full)	52.9
CC(C)C(=O)OCC(CCn1cnc2c(O)nc(N)nc21)COC(=O)[C@@H](N)C(C)C.Cl (stereo not given in full)	120
CCCC(=O)OCC(CCn1cnc2c(O)nc(N)nc21)COC(=O)[C@@H](N)C(C)C.Cl (stereo not given in full)	122
CCC(C)[C@H](N)C(=O)OCC(CCn1cnc2c(O)nc(N)nc21)COC(C)=O.Cl (stereo not given in full)	105
CCCC(=O)OCC(CCn1cnc2c(O)nc(N)nc21)COC(=O)[C@@H](N)C(C)CC.Cl (stereo not given in full)	93.7
CC(C)[C@H](N)C(=O)OCC(CCn1cnc2c(O)nc(N)nc21)COC(=O)[C@@H](N)C(C)C.Cl.Cl	30.9
CCC(=O)OCC(CCn1cnc2c(O)nc(N)nc21)COC(=O)[C@@H](N)C(C)C.Cl (stereo not given in full)	104
CC(=O)OCC(CCn1cnc2c(O)nc(N)nc21)COC(=O)[C@@H](N)C(C)C.Cl (stereo not given in full)	108
CCC(C)[C@H](N)C(=O)OCC(CCn1cnc2c(O)nc(N)nc21)COC(=O)C(C)C.Cl (stereo not given in full)	83.5
CCC(=O)OCC(CCn1cnc2c(O)nc(N)nc21)COC(=O)[C@@H](N)C(C)CC.Cl (stereo not given in full)	83.5

###

assay remarks: Half life was measured at pH 8.0 and at 37 degree Celsius temperature
Format: ADME
endpoint name: half-life

compound	obs value
CC(C)[C@H](N)C(=O)OCC(CCn1cnc2c(O)nc(N)nc21)COC(=O)[C@@H](N)C(C)C.Cl.Cl	6 h
CCCC(=O)OCC(CCn1cnc2c(O)nc(N)nc21)COC(=O)[C@@H](N)C(C)C.Cl (stereo not given in full)	14.1 h
CCC(C)[C@H](N)C(=O)OCC(CCn1cnc2c(O)nc(N)nc21)COC(C)=O.Cl (stereo not given in full)	19.1 h
CCC(C)[C@H](N)C(=O)OCC(CCn1cnc2c(O)nc(N)nc21)COC(=O)C(C)C.Cl (stereo not given in full)	19.4 h
CC(=O)OCC(CCn1cnc2c(O)nc(N)nc21)COC(=O)[C@@H](N)C(C)C.Cl (stereo not given in full)	13.2 h
CCC(C)[C@H](N)C(=O)OCC(CCn1cnc2c(O)nc(N)nc21)COC(=O)[C@@H](N)C(C)CC.Cl.Cl (stereo not given in full)	9.8 h
CCCC(=O)OCC(CCn1cnc2c(O)nc(N)nc21)COC(=O)[C@@H](N)C(C)CC.Cl (stereo not given in full)	19.9 h
CC(C)C(=O)OCC(CCn1cnc2c(O)nc(N)nc21)COC(=O)[C@@H](N)C(C)C.Cl (stereo not given in full)	14.4 h
CCC(=O)OCC(CCn1cnc2c(O)nc(N)nc21)COC(=O)[C@@H](N)C(C)CC.Cl (stereo not given in full)	19.9 h
CCC(=O)OCC(CCn1cnc2c(O)nc(N)nc21)COC(=O)[C@@H](N)C(C)C.Cl (stereo not given in full)	13.6 h

###

assay remarks: Half life was measured at pH 1.0 and at 37 degree Celsius temperature
Assay type: ADME
half-life for assorted compounds

compound	units symbol	censoring qualifier	half-life
CCC(C)[C@H](N)C(=O)OCC(CCn1cnc2c(O)nc(N)nc21)COC(=O)C(C)C.Cl (stereo not given in full)	min	=	2790
CCCC(=O)OCC(CCn1cnc2c(O)nc(N)nc21)COC(=O)[C@@H](N)C(C)C.Cl (stereo not given in full)	min	=	2000
CCC(=O)OCC(CCn1cnc2c(O)nc(N)nc21)COC(=O)[C@@H](N)C(C)CC.Cl (stereo not given in full)	min	=	1140
CC(C)C(=O)OCC(CCn1cnc2c(O)nc(N)nc21)COC(=O)[C@@H](N)C(C)C.Cl (stereo not given in full)	min	=	2850
CCC(=O)OCC(CCn1cnc2c(O)nc(N)nc21)COC(=O)[C@@H](N)C(C)C.Cl (stereo not given in full)	min	=	1150
CCC(C)[C@H](N)C(=O)OCC(CCn1cnc2c(O)nc(N)nc21)COC(=O)[C@@H](N)C(C)CC.Cl.Cl (stereo not given in full)	min	>	10100
CC(C)[C@H](N)C(=O)OCC(CCn1cnc2c(O)nc(N)nc21)COC(=O)[C@@H](N)C(C)C.Cl.Cl	min	>	10100
CCCC(=O)OCC(CCn1cnc2c(O)nc(N)nc21)COC(=O)[C@@H](N)C(C)CC.Cl (stereo not given in full)	min	=	2040
CCC(C)[C@H](N)C(=O)OCC(CCn1cnc2c(O)nc(N)nc21)COC(C)=O.Cl (stereo not given in full)	min	=	1160
CC(=O)OCC(CCn1cnc2c(O)nc(N)nc21)COC(=O)[C@@H](N)C(C)C.Cl (stereo not given in full)	min	=	1160
